# test_target: IAG-nucleoside hydrolase (Trypanosoma brucei, UniProt Q57ZL6)
# Sequence (Q57ZL6 1-327): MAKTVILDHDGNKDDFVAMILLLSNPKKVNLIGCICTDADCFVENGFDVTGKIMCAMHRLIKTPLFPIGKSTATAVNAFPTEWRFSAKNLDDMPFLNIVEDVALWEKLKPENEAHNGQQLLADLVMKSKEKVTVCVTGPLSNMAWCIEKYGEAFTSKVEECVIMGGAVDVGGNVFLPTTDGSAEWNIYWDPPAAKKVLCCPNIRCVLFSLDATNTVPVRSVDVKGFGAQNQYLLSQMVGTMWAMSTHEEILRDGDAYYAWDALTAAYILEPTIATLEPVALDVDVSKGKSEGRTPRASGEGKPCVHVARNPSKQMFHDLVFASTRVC
# test_details: Comparison of β-D-ribofuranoside substrates with IAG-nucleoside hydrolase (Table 3)
# Assay type: biochemical
# experimental_conditions: at 200 μM substrate, pH 8.0
The entries below come with measured IAG NH rate values attached.

Example cases with answers are listed next.
molecule	IAG NH rate
O=C1OC(c2ccc(O)cc2)(c2ccc(O[C@@H]3O[C@H](CO)[C@@H](O)[C@H]3O)cc2)c2ccccc21 (some centres unmarked) [Example 7]	<0.01 min⁻¹
OC[C@H]1O[C@@H](Oc2cccc3ncccc23)[C@H](O)[C@@H]1O [Example 14, 5-quinolyl β-D-ribofuranoside]	0.16 min⁻¹
O=C1CCCc2c(O[C@@H]3O[C@H](CO)[C@@H](O)[C@H]3O)cccc21 [Example 5, 1-tetralone-5-yl β-D-ribofuranoside]	<0.01 min⁻¹

I'd like to know its IAG NH rate. The molecule in question is NC(=O)c1ccc(O[C@@H]2O[C@H](CO)[C@@H](O)[C@H]2O)nc1 [Example 19] >100 min⁻¹

# lookup: IAG NH rate of O=[N+]([O-])c1ccc(O[C@@H]2O[C@H](CO)[C@@H](O)[C@H]2O)nc1 [Example 13, 2-(5-nitropyridyl) β-D-ribofuranoside] >100 min⁻¹
